Taken from ChEMBL document CHEMBL1157070.

test: Cytotoxicity against human U87MG cells after 72 hrs by MTT assay; type: functional, cell-based, U-87MG ATCC; conditions: U-87 MG
# IC50 per record follows

Known results for compounds:
Look up IC50: C=C(CC[C@@H](C)[C@H]1[C@H](O[C@@H]2O[C@@H]([C@@H](O)COC)[C@H](O[C@@H]3O[C@@H]([C@@H](O)COC)[C@H](O)[C@H]3O)[C@H]2O)CC2=C3[C@@H](O)[C@@H](O)[C@H]4C[C@H](O)CC[C@]4(C)[C@H]3CC[C@@]21C)C(C)C [ANTHENOSIDE G] > 25.1 µM

Given the compound COC[C@H](O)[C@@H]1O[C@@H](O[C@@H]2[C@@H](O)[C@H](O[C@@H]3CC4=C5[C@@H](O)[C@@H](O)[C@H]6C[C@H](O)CC[C@]6(C)[C@H]5CC[C@]4(C)[C@H]3[C@H](C)CCCC(C)C)O[C@H]2[C@@H](O)COC)[C@H](O)[C@H]1O [ANTHENOSIDE E] , what is its reported IC50? > 25.4 µM

Now turn to the next compound.
What IC50 value was documented for this compound, CCC(CC[C@@H](C)[C@H]1[C@H](O[C@@H]2O[C@@H]([C@@H](O)COC)[C@H](O[C@@H]3O[C@@H]([C@@H](O)COC)[C@H](O)[C@H]3O)[C@H]2O)CC2=C3[C@@H](O)[C@@H](O)[C@H]4C[C@H](O)CC[C@]4(C)[C@H]3CC[C@@]21C)C(C)C (mixture of isomers) ? > 24.5 µM
